Cited source: patent US20060148858A1

# melting point per entry

// query Specify melting point for CCC(CC)c1nn(-c2ccc(Br)cn2)cc1CCCOc1c(C)cccc1CC(=O)O [Example 353] and stop.
// result 120 to 121 °C

// query Query melting point for CC(C)c1nn(-c2ccc(C(F)(F)F)cn2)cc1CCCOc1nn(C)cc1CC(=O)O [Example 299]
// result 122 to 123 °C

// query Note down melting point recorded for Cc1cccc(CC(=O)O)c1OCCCc1cn(-c2ccc(Cl)cn2)nc1C(C)(C)C [Example 371]
// result 112 to 113 °C

====

target: PPARγ-RXRα heterodimer (Homo sapiens); test: PPARγ-RXRα heterodimer ligand activity, luciferase reporter in PPARγ:RXRα:4ERPP/CHO-K1 cells (Test Example 3); conditions: 18-48 hours, concentration for 50% of the maximum fold induction
measured.metric: EC50 (nM)
Report the figure in nM without appending any unit label.

// query // fetch EC50 for "CCOc1nn(-c2ccc(C(F)(F)F)cn2)cc1CCCOc1cccc(OC(C)(C)C(=O)O)c1" ; system: PPARγ-RXRα heterodimer (Homo sapiens)
// result 160

// query Report value only: EC50, PPARγ-RXRα heterodimer (Homo sapiens), "COc1cccc(CC(=O)O)c1OCCCc1cn(-c2ccc(C(F)(F)F)cn2)nc1-c1ccccc1"
// result 42

// query Report its EC50 with PPARγ-RXRα heterodimer (Homo sapiens) as the test system: "CCCc1nn(-c2ccc(C(F)(F)F)cn2)cc1CCCOc1cccc(OC(C)(C)C(=O)O)c1"
// result 77

// query Fill in: EC50 on PPARγ-RXRα heterodimer (Homo sapiens), entry "O=C(O)Cc1cccc(F)c1OCCCc1cn(-c2ccc(C(F)(F)F)cn2)nc1C1CCCCC1"
// result 16

// query Give EC50 for this entry on PPARγ-RXRα heterodimer (Homo sapiens): "CCCCc1nn(-c2ccc(C(F)(F)F)cn2)cc1CCCOc1nn(CC)cc1CC(=O)O"
// result 74

// query Give EC50 only, for "CCC(CC)c1nn(-c2ccc(Br)cn2)cc1CCCOc1c(CC(=O)O)cccc1OC" , using PPARγ-RXRα heterodimer (Homo sapiens) data.
// result 20

New cases:
// query // fetch EC50 for "CCCc1nn(-c2ccc(C(F)(F)F)cn2)cc1CCCCn1cc(CCC(=O)O)c(-c2ccc(F)cc2)n1" ; system: PPARγ-RXRα heterodimer (Homo sapiens)
// result 21

// query For PPARγ-RXRα heterodimer (Homo sapiens), give the measured EC50 of the entry "CCC(CC)c1nn(-c2ccc(C(F)(F)F)nn2)cc1CCCOc1c(C)cccc1CC(=O)O"
// result 22

// query Give EC50; test system PPARγ-RXRα heterodimer (Homo sapiens); compound "CCC(CC)c1nn(-c2ccc(C(F)(F)F)cn2)cc1CCCOc1c(CC(=O)O)cccc1OC"
// result 13

// query Please respond with reported EC50 (system PPARγ-RXRα heterodimer (Homo sapiens)) for "COc1ccc(CC(=O)O)cc1OCCCc1cn(-c2ccc(C(F)(F)F)cn2)nc1C1CCCCC1" .
// result 40

// query With PPARγ-RXRα heterodimer (Homo sapiens) as the test system, provide measured EC50 for this compound: "CCCCc1nn(-c2ccc(C(F)(F)F)cn2)cc1CCCOc1ccccc1CC(=O)O"
// result 30

====

In this section we review reported melting point values for a set of compounds.

Example entries begin here.
// query // fetch melting point given entry "CCOc1cccc(CC(=O)O)c1OCCCc1cn(-c2ccc(C(F)(F)F)cn2)nc1C(CC)CC"
// result 83 to 84 °C

// query Supply recorded melting point for "CCC(CC)c1nn(-c2ccc(C(F)(F)F)cn2)cc1CCCOc1c(CC(=O)O)cccc1OC" here.
// result 100 to 101 °C

// query Please report melting point for the following compound: "CCCCOc1cc(OCCCc2cn(-c3ccc(C(F)(F)F)cn3)nc2OCC)ccc1CCC(=O)O"
// result 123 to 124 °C

// query Quickly give me recorded melting point for "CCc1cccc(CC(=O)O)c1OCCCc1cn(-c2ccc(Br)cn2)nc1C(CC)CC"
// result 123 °C

// query For "CCOc1nn(-c2ccc(C(F)(F)F)cn2)cc1CCCOc1ccc(CCC(=O)O)cc1O" , write its melting point.
// result 124 to 125 °C

// query Give reported melting point value for "CCOc1nn(-c2ccc(C(F)(F)F)cn2)cc1CCCOc1ccc(CCC(=O)O)cc1OCc1ccccc1"
// result 115 to 116 °C

// query Give recorded melting point. "CCCc1nn(-c2ccc(C(F)(F)F)cn2)cc1CCCOc1c(C)cnn1CC(=O)O"
// result 145 to 146 °C

// query Determine from records and report melting point for "COc1cccc(CC(=O)O)c1OCCCc1cn(-c2ccc(F)cn2)nc1C(C)C"
// result 125 to 126 °C

// query Dear colleague, please send me the reported melting point for "CCOc1nn(-c2ccc(C(F)(F)F)cn2)cc1CCCOc1nn(CC)cc1CC(=O)O" when you can.
// result 108 to 109 °C

Further cases:
// query Give the measured melting point for "CCOc1cc(OCCCc2cn(-c3ccc(C(F)(F)F)cc3)nc2OCC)ccc1CCC(=O)O"
// result 131 to 132 °C

====

measured.metric: melting point

Worked set:
// query Identify the reported melting point for the following entry. CCCc1nn(-c2ccc(C(F)(F)F)cc2)cc1CCCOc1c(CC(=O)O)cccc1OC [Example 297]
// result 95 to 96 °C

// query Report melting point for CCOc1nn(-c2ccc(C(F)(F)F)cn2)cc1CCCOc1ccc(CCC(=O)O)c(OCc2ccccc2)c1 [Example 112]
// result 128 to 130 °C

Continuing:
// query In one line, give reported melting point of the entry CCCc1nn(-c2ccc(C(F)(F)F)cn2)cc1CCCOc1cc(CCC(=O)O)n(C)n1 [Example 45] .
// result 80 to 81 °C

// query Item O=C(O)Cc1cccc(OCc2cn(-c3ccc(C(F)(F)F)cn3)nc2C2CCCCC2)c1 [Example 187] : provide melting point
// result 129 to 130 °C

// query // Input: CC(C)c1nn(-c2ccc(C(F)(F)F)cc2)cc1COc1cccc(CC(=O)O)c1 [Example 178] . Output its melting point only.
// result 92 to 93 °C

====

biological target: PPARγ-RXRα heterodimer (Homo sapiens, UniProt P37231); test: PPARγ-RXRα heterodimer ligand activity, luciferase reporter in PPARγ:RXRα:4ERPP/CHO-K1 cells (Test Example 3); settings: 18-48 hours, concentration for 50% of the maximum fold induction
Sequence (P37231 29-505): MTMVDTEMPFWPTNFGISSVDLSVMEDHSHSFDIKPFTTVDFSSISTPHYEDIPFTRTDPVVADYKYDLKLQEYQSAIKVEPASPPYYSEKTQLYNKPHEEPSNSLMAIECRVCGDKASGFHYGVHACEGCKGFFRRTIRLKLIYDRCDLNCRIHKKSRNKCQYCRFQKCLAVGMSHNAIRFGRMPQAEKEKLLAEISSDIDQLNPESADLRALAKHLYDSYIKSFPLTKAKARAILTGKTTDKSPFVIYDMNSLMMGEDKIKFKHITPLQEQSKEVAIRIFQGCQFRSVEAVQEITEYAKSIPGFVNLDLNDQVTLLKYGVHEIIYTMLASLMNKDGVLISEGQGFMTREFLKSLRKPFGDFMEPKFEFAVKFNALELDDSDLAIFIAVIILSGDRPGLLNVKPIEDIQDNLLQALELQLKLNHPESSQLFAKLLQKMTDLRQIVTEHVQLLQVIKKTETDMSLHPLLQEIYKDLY
Sequence (P19793 whole entry partner): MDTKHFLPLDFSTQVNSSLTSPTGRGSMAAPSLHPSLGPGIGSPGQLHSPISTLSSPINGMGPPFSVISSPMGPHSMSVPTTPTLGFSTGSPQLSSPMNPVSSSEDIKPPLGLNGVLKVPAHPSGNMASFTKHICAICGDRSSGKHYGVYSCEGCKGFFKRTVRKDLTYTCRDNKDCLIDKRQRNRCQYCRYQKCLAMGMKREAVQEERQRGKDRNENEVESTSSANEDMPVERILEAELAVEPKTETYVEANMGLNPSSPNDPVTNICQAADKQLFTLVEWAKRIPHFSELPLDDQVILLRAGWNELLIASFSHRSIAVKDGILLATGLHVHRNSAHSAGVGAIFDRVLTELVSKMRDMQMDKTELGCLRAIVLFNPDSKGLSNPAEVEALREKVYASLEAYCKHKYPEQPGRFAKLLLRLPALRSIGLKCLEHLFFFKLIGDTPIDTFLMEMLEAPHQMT
measured.metric: EC50 (nM)
The reply should be a number in nM, with the unit left off.

// query Please respond with reported EC50 (system PPARγ-RXRα heterodimer (Homo sapiens, UniProt P37231)) for "CCCc1nn(-c2ccc(C(F)(F)F)cn2)cc1CCCOc1c(Br)cccc1CC(=O)O" .
// result 17

// query Provide EC50, system PPARγ-RXRα heterodimer (Homo sapiens, UniProt P37231), entry "Cn1cc(CC(=O)O)c(OCCCc2cn(-c3ccc(C(F)(F)F)cn3)nc2C2CCCCC2)n1"
// result 52

New cases:
// query Find the measured EC50 of "CCOc1nn(-c2ccc(C(F)(F)F)cn2)cc1CCCCOc1cc(CCC(=O)O)n(-c2ccccc2)n1" with PPARγ-RXRα heterodimer (Homo sapiens, UniProt P37231) as test system.
// result 34

// query Determine reported EC50 for CCCC(C)c1nn(-c2ccc(C(F)(F)F)cn2)cc1CCCOc1c(CC(=O)O)cccc1OC (stereo not shown) ; test system: PPARγ-RXRα heterodimer (Homo sapiens, UniProt P37231).
// result 9.6

====

Reported melting point values follow for various molecules

// query Answer with the recorded melting point of COc1cccc(CC(=O)O)c1OCCCc1cn(-c2ccc(C(F)(F)F)nn2)nc1C(C)C [Example 274] only.
// result 92 to 93 °C

// query // Input: CCn1ncc(CC(=O)O)c1OCCCc1cn(-c2ccc(C(F)(F)F)cn2)nc1C(C)C [Example 322] . Output its melting point only.
// result 120 to 121 °C

// query Read the entry O=C(O)CCCc1cccc(OCc2cn(-c3ccc(C(F)(F)F)cn3)nc2C2CCCCC2)c1 [Example 195] and write its reported melting point.
// result 128 to 129 °C

// query Report melting point, nothing else, for this molecule: COc1cccc(CC(=O)O)c1OCCCCc1cn(-c2ccc(C(F)(F)F)cn2)nc1C(C)C [Example 180]
// result 144 to 145 °C

// query Please supply the value of reported melting point for the item CCC(CC)c1nn(-c2ccc(Cl)cn2)cc1CCCOc1c(C)cccc1CC(=O)O [Example 224]
// result 106 to 107 °C

// query Consider the molecule CCCOc1cc(OCCCc2cn(-c3ccc(C(F)(F)F)cn3)nc2OCC)ccc1CCC(=O)O [Example 117] and give its recorded melting point.
// result 126 to 127 °C
